Recorded pest or weed control at 125 g/ha, one value per entry.
test system: ryegrass, Italian (Italian ryegrass, Lolium multiflorum); assay: Test A postemergence; assay type: in vivo; settings: Lolium multiflorum, post-emergence, 240 h, 125 g ai/ha, postemergence, visual injury vs untreated controls after approx. 10 d; 0 = no effect, 100 = complete control; read-out: Ryegrass, Italian plant response rating (0 to 100 scale)
Kindly answer with a numeric value in %, unit omitted.

{"columns": ["Substance Smiles", "Assay Readout", "Endpoint Result"],
 "data": [
  ["CN1C[C@H](c2ccc(F)c(Br)c2)[C@@H](C(=O)Nc2cccc(F)c2F)C1=O", "pest or weed control at 125 g/ha", 40],
  ["C=C(C)c1ccc([C@H]2CN(C)C(=O)[C@@H]2C(=O)Nc2cccc(F)c2C)cc1", "pest or weed control at 125 g/ha", 0]
]}

Give the value of pest or weed control at 125 g/ha reported for the following: "Cc1c(F)cccc1NC(=O)[C@H]1C(=O)N(C)C[C@@H]1c1ccc2c(c1)OC(F)(F)O2"
70

Give the value of pest or weed control at 125 g/ha reported for the following: "COc1ccc(C(F)(F)F)cc1[C@H]1CN(C)C(=O)[C@@H]1C(=O)Nc1cccc(F)c1F"
30

Give the value of pest or weed control at 125 g/ha reported for the following: "COc1cc(C(F)(F)F)ccc1[C@H]1CN(C)C(=O)[C@@H]1C(=O)Nc1cccc(F)c1C"
0

Give the value of pest or weed control at 125 g/ha reported for the following: "CN1C[C@H](c2ccc(C#N)cc2)[C@@H](C(=O)Nc2ccccc2F)C1=O"
0

Give the value of pest or weed control at 125 g/ha reported for the following: "CN1CC[C@H](c2ccc(C(F)(F)F)cc2)[C@@H](C(=O)Nc2cccc(F)c2F)C1=O"
30

###

Recorded pest or weed control at 15.625 g/ha, one value per entry.
tested on: velvetleaf (Abutilon theophrasti); experiment: Test G Pre-Emergence Protocol; assay type: in vivo; settings: Abutilon theophrasti, pre-emergence, 312 h, 15.625 g ai/ha, evaluated after 13 days, read-out: Velvetleaf damage rating (100=total damage to plant; 0=no damage to plant)
Kindly answer with a numeric value in %, unit omitted.

{"columns": ["Compound", "pest or weed control at 15.625 g/ha, %"],
 "data": [
  ["CN1C[C@H](c2ccc3c(c2)CCCC3)[C@@H](C(=O)Nc2cccc(F)c2F)C1=O (racemic) [Compound 1496]", 0]
]}

Give the value of pest or weed control at 15.625 g/ha reported for the following: CN1C[C@H](c2ccc(C(F)(F)F)cc2)[C@@H](C(=O)Nc2cccc3c2S(=O)(=O)CC3)C1=O (racemic) [Compound 1737]
0

Give the value of pest or weed control at 15.625 g/ha reported for the following: CN1C[C@H](c2ccc(C(F)(F)F)cc2)[C@@H](C(=O)Nc2cccnc2S(C)(=O)=O)C1=O (racemic) [Compound 1789]
0

Give the value of pest or weed control at 15.625 g/ha reported for the following: Cc1nc(C(F)(F)F)ccc1NC(=O)[C@@H]1C(=O)N(C)C[C@H]1c1ccc(C(F)(F)F)cc1 (racemic) [Compound 1566]
0

###

Recorded pest or weed control at 125 g/ha, one value per entry.
test system: Kochia (Kochia scoparia); assay: Test A preemergence; assay type: in vivo; details: Bassia scoparia, pre-emergence, 240 h, 125 g ai/ha, preemergence; visual injury rating, 0 to 100 scale where 0 is no effect and 100 is complete control; approximately 10 d; read-out: Kochia plant response rating
Please give the number followed by its unit.

// worked examples, pest or weed control at 125 g/ha included
{"columns": ["Substance Smiles", "pest or weed control at 125 g/ha"],
 "data": [
  ["COc1cc([C@H]2CN(C)C(=O)[C@@H]2C(=O)Nc2cccc(F)c2F)ccc1F", "70%"],
  ["COc1cc([C@H]2CN(C)C(=O)[C@@H]2C(=O)Nc2ccccc2SC)ccc1F", "30%"],
  ["CN1C[C@H](c2ccc(C#N)cc2)[C@@H](C(=O)Nc2ccccc2F)C1=O", "30%"]
]}

Give the value of pest or weed control at 125 g/ha reported for the following: "CSc1ccccc1NC(=O)[C@H]1C(=O)N(C)C[C@@H]1c1ccc2c(c1)OC(F)(F)O2"
80%
